Examples of compounds with documented IC50 follow.
target: UniProtKB P34972
Sequence (P34972 whole entry): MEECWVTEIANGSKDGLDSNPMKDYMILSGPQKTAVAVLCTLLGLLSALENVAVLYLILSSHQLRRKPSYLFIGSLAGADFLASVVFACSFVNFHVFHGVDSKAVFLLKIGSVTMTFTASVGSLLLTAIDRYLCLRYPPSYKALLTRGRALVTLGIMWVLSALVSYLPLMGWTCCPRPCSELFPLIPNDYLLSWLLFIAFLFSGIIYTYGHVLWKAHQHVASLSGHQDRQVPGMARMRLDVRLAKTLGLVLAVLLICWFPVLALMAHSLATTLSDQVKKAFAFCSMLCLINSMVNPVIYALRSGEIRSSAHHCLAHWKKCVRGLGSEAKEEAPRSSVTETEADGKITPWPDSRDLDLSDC
attributeMeasured: IC50 (nM)

compound: CCCCCCC(C)(C)c1cc(O)c([C@H]2CC(=O)[C@H]3C[C@@H]2C3(C)C)c(OC(=O)/C=C/C(=O)O)c1
units: nM
recordedValue: 19.4

compound: CCCCC(C)(C)c1cc(O)c([C@H]2C=C(CO)[C@H]3C[C@@H]2C3(C)C)c(O)c1
units: nM
recordedValue: 8.4

compound: O=S(=O)(NCC1CC1)c1ccc(Nc2ccc(Cl)cc2Cl)cc1C(F)(F)F
units: nM
recordedValue: 30

compound: CCCCCCC(C)(C)c1cc(O)c2c(c1)OC1CCCCCC21 (stereo not shown)
units: nM
recordedValue: 6.5
